Quick reference for CTLA4 MFI at 33.3 nM among some molecules
Biological target: huCTLA4 (Homo sapiens, UniProt P16410)
Sequence (P16410 36-223): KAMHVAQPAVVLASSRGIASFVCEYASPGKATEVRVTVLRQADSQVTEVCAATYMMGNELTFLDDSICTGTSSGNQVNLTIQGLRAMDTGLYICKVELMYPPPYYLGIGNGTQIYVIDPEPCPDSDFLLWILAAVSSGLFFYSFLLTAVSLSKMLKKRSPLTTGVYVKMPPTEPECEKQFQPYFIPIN
Test: Flow binding to CHO cells stably expressing CTLA4
Parameters: huCTLA4 and huPD-L1, full-length mammalian surface expression constructs were generated; expressed in transfected cells; host or cells: CHO cells, lentiviral transduction, sorted to >98% purity
Settings: Table E11; CHO cells stably expressing CTLA4; 33.3 nM
Experimental: Binding of selected immunomodulatory fusion proteins to cognate binding partners was assessed. […] Cells were sorted in a Bio-Rad S3 Cell Sorter (Bio-Rad Corp., USA) to >98% purity. […] For staining and analysis by flow cytometry, 100,000 cells of appropriate transfected cells were plated in 96-well round bottom plates. […] Cells were then washed twice with 150 μL/well stain buffer, fixed in 2% formaldehyde/PBS, and analyzed on Intellicyt flow cytometer (Intellicyt Corp., USA). […]
Write the value as a bare number.

H18Y/V22D/E35D/M47V/N48K/V68M (protein, UniProt P33681 35-288, looked up, variant H18Y V22D E35D M47V N48K V68M) T-lymphocyte activation …: VIHVTKEVKEVATLSCGYNVSDEELAQTRIYWQKDKKMVLTMMSGDVKIWPEYKNRTIFDITNNLSIMILALRPSDEGTYECVVLKYEKDAFKREHLAEVTLSVKADFPTPSISDFEIPTSNIRRIICSTSGGFPEPHLSWLENGEELNAINTTVSQDPETELYAVSSKLDFNMTTNHSFMCLIKYGHLRVNQTFNWNTTKQEHFPDNLLPSWAITLISVNGIFVICCLTYCFAPRCRERRRNERLRRESVRPV
15798
T13R/Q33R/E35D/M47L/V68M/L85M (protein, CD80 v382 ECD) VIHVTKEVKEVARLSCGHNVSVEELAQTRIYWRKDKKMVLTMMSGDLNIWPEYKNRTIFDITNNLSIMILALRPSDEGTYECVVMKYEKDAFKREHLAEVTLSVKADFPTPSISDFETPTSNIRRIICSTSGGFPEPHLSWLENGEELNAINTTVSQDPETELYAVSSKLDFNMTTNHSFMCLIKYGHLRVNQTFNWNTTKQEHFPDN
13438
T13R/Q33R/E35D/M38I/M47L/V68M (protein, UniProt P33681 35-288, looked up, variant T13R Q33R E35D M38I M47L V68M) T-lymphocyte activation …: VIHVTKEVKEVARLSCGHNVSVEELAQTRIYWRKDKKIVLTMMSGDLNIWPEYKNRTIFDITNNLSIMILALRPSDEGTYECVVLKYEKDAFKREHLAEVTLSVKADFPTPSISDFEIPTSNIRRIICSTSGGFPEPHLSWLENGEELNAINTTVSQDPETELYAVSSKLDFNMTTNHSFMCLIKYGHLRVNQTFNWNTTKQEHFPDNLLPSWAITLISVNGIFVICCLTYCFAPRCRERRRNERLRRESVRPV
193
E35D/M47V/N48KN68M/A71G/L85M (protein) VIHVTKEVKEVATLSCGHNVSVEELAQTRIYWQKDKKMVLTMMSGDVKIWPEYKNRTIFDITNNLSIMILGLRPSDEGTYECVVMKYEKDAFKREHLAEVTLSVKAD
16604
E35D/M43I/M47L/V68M (protein, UniProt P33681 35-288, looked up, variant E35D M43I M47L V68M) T-lymphocyte activation …: VIHVTKEVKEVATLSCGHNVSVEELAQTRIYWQKDKKMVLTMISGDLNIWPEYKNRTIFDITNNLSIMILALRPSDEGTYECVVLKYEKDAFKREHLAEVTLSVKADFPTPSISDFEIPTSNIRRIICSTSGGFPEPHLSWLENGEELNAINTTVSQDPETELYAVSSKLDFNMTTNHSFMCLIKYGHLRVNQTFNWNTTKQEHFPDNLLPSWAITLISVNGIFVICCLTYCFAPRCRERRRNERLRRESVRPV
16243

Read the next record carefully.
Consider the molecule Q33R/E35D/M38I/M47L/V68M (protein, UniProt P33681 35-288, looked up, variant Q33R E35D M38I M47L V68M) T-lymphocyte activation …: VIHVTKEVKEVATLSCGHNVSVEELAQTRIYWRKDKKIVLTMMSGDLNIWPEYKNRTIFDITNNLSIMILALRPSDEGTYECVVLKYEKDAFKREHLAEVTLSVKADFPTPSISDFEIPTSNIRRIICSTSGGFPEPHLSWLENGEELNAINTTVSQDPETELYAVSSKLDFNMTTNHSFMCLIKYGHLRVNQTFNWNTTKQEHFPDNLLPSWAITLISVNGIFVICCLTYCFAPRCRERRRNERLRRESVRPV and give its measured CTLA4 MFI at 33.3 nM.
107
